# Test system: HCV 1b replicon
# MEASUREMENT_PROTOCOL: HCV 1b replicon system, block of HCV replication
# Format: cell-based
# PARTICULARS: Hepatitis C virus, read-out: HCV Replicon EC90
PROPERTY: EC90

Consider the following illustrative entries.
MOL_SMILES: COC(=O)N[C@H](C(=O)N1C[C@H](N=[N+]=[N-])C[C@H]1c1ncc(-c2ccc(-c3ccc(-c4cnc([C@@H]5C[C@@H](N=[N+]=[N-])CN5C(=O)[C@@H](NC(=O)OC)C(C)C)[nH]4)cc3)cc2)[nH]1)C(C)C
VALUE: 0.0542 nM
//
MOL_SMILES: COC(=O)N[C@H](C(=O)N1C[C@H](N=[N+]=[N-])C[C@H]1c1nc(Cl)c(-c2ccc(-c3ccc(-c4[nH]c([C@@H]5C[C@@H](N=[N+]=[N-])CN5C(=O)[C@@H](NC(=O)OC)C(C)C)nc4Cl)cc3)cc2)[nH]1)C(C)C
VALUE: 0.0096 nM
//
MOL_SMILES: COC(=O)N[C@H](C(=O)N1C[C@@H](n2cc(-c3ccccc3)nn2)C[C@H]1c1ncc(-c2ccc(-c3ccc(-c4cnc([C@@H]5C[C@H](n6cc(-c7ccccc7)nn6)CN5C(=O)[C@@H](NC(=O)OC)C(C)C)[nH]4)cc3)cc2)[nH]1)C(C)C
VALUE: > 10 nM

Now turn to the next molecule.
Observed EC90 on HCV 1b replicon, entry COC(=O)N[C@H](C(=O)N1C[C@H](n2cc(C(=O)OC)nn2)C[C@H]1c1ncc(-c2ccc(-c3ccc(-c4cnc([C@@H]5C[C@@H](n6cc(C(=O)OC)nn6)CN5C(=O)[C@@H](NC(=O)OC)C(C)C)[nH]4)cc3)cc2)[nH]1)C(C)C , equals 0.0428 nM
